molecular target: Ba/F3 ERBB2-L869R (Homo sapiens, UniProt P04626, L869R, cells depend on it); construct: Ba/F3 cell lines were engineered to express human ERBB2 or EGFR kinases, rendering the cells IL-3 independent; assay: Cell viability assay (CellTiter Glo); format: cell-based, mouse; settings: 72 hours; 3000 cells per well, 96-well plates; read-out: Cell viability IC50, nM, Ba/F3 ERBB2-L869R
Sequence (P04626 whole entry L869R): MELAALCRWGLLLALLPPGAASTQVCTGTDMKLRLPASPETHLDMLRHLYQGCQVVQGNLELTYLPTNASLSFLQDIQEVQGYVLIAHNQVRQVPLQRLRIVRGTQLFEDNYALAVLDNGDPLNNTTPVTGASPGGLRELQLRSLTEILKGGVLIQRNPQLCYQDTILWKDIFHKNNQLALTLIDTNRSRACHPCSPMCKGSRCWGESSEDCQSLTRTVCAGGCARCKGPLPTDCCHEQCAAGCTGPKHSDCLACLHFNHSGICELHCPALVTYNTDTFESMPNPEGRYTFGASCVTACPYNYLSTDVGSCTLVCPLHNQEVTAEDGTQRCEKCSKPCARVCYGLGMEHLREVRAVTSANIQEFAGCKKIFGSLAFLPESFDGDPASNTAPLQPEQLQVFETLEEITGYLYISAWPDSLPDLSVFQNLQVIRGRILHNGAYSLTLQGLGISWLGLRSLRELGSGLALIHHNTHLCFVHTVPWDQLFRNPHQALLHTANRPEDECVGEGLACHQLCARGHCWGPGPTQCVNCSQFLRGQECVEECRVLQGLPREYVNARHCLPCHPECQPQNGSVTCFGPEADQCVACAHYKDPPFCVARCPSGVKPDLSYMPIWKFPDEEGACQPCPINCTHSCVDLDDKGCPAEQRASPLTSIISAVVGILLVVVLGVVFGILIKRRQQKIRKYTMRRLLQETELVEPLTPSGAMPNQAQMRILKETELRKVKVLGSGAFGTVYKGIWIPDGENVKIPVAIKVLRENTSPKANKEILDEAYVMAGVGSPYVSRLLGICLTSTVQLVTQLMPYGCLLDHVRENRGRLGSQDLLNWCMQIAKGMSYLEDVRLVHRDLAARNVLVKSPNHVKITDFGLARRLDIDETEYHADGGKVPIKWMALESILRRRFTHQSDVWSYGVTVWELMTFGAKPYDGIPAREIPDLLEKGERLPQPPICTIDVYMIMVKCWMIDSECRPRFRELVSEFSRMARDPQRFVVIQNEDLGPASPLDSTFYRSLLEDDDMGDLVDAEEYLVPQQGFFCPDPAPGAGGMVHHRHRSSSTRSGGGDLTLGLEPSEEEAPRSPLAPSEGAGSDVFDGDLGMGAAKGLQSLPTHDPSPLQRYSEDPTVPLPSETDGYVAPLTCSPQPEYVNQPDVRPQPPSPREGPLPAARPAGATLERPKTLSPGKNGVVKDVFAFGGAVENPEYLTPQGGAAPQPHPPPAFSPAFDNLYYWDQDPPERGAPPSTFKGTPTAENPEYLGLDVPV

compound	readout.units	reported.relation	GI50
CC#CC(=O)Nc1ccc2ncnc(Nc3ccc(Oc4ccn5ncnc5c4)c(C)c3)c2c1 [Compound 1]	nM	<	1
CC#CC(=O)Nc1ccc2ncnc(Nc3ccc(Oc4ccc(C)nc4)cc3)c2c1 [Compound 9]	nM	=	15
CC#CC(=O)Nc1cc2c(Nc3ccc(Oc4ccn5ncnc5c4)c(C)c3)ncnc2cc1OCCN(C)C [Compound 150]	nM	=	4.31
CC#CC(=O)Nc1ccc2ncnc(Nc3ccc(Oc4ccc(C)nc4)c(C)c3)c2c1 [Compound 5]	nM	=	2.3
Cc1cc(Nc2ncnc3ccc(NC4=NC(C)(C)CO4)cc23)ccc1Oc1ccn2ncnc2c1 [Tucatinib, tucatinib, reference compound]	nM	=	63.5
CC#CC(=O)Nc1ccc2ncnc(Nc3ccc(Cc4ccn5ncnc5c4)cc3)c2c1 [Compound 14]	nM	=	9.5
CC#CC(=O)Nc1ccc2ncnc(Nc3ccc(Oc4cnc(C)cn4)cc3)c2c1 [Compound 10]	nM	=	15
CC#CC(=O)N(C)c1ccc2ncnc(Nc3ccc(Oc4ccn5ncnc5c4)cc3)c2c1 [Compound 8]	nM	=	52
